target.or.test.system: cloned human NR1/NR2B ion channels (Homo sapiens (Human), UniProt Q05586+Q13224)
Sequence (Q13224 27-1484, other chains not shown): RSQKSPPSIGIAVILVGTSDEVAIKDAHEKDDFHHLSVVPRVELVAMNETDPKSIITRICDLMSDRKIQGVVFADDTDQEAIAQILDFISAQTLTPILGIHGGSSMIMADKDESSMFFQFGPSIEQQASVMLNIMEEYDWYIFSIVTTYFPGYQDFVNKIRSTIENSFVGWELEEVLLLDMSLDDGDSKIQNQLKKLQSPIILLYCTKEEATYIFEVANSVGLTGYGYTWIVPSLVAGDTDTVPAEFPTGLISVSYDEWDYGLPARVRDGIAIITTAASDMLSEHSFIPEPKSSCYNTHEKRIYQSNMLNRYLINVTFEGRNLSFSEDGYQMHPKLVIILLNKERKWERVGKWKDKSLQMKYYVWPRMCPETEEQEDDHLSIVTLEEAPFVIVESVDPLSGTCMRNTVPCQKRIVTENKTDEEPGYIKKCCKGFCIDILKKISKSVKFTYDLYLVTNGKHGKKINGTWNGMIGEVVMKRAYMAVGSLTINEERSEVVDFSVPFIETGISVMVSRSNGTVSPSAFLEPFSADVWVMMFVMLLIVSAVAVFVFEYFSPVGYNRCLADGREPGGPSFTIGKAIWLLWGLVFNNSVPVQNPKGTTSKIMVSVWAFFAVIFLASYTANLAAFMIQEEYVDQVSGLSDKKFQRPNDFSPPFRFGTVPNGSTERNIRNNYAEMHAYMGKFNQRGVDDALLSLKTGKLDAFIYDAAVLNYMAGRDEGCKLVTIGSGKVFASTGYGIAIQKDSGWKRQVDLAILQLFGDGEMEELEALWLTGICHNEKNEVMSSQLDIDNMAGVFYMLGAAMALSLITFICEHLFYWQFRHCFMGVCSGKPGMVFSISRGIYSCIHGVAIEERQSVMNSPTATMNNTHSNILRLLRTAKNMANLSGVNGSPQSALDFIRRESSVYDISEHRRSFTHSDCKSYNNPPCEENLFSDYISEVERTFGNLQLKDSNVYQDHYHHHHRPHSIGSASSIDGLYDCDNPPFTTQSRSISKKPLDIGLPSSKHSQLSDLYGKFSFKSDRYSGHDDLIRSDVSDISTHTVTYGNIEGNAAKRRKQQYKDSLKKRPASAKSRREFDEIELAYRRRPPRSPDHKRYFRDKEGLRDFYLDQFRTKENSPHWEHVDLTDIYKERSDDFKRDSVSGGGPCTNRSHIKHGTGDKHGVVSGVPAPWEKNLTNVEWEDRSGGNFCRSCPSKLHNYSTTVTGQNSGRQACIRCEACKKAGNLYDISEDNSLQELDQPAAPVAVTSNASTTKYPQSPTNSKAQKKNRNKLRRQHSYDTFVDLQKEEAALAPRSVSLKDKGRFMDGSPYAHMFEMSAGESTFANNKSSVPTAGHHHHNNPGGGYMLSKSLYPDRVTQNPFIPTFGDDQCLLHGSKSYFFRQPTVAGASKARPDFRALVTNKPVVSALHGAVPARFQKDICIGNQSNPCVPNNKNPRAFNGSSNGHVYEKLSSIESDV
procedure.details: HNR2BC: effects of test articles on cloned human NR1/NR2B ion channels expressed in mammalian cells (FLIPR calcium flux)
Format: cell-based
experimental.parameters: cloned human NR1/NR2B, Table 5
pIC50: −log10 of the molar value. Where a name gives a salt, the structure may show the parent alone.
Would you please tag the item Fulfilled when its pIC50 is 7 or above, and Not fulfilled when it is below?

Lookup: Reported pIC50 reaches at least 7 for CCC(=O)Cn1ccc2ncc(-c3ccc(F)c(C)c3)cc21 [Example 295, trifluoroacetate salt] ?
Found: Not fulfilled

Lookup: Reported pIC50 reaches at least 7 for CN(C)C(=O)Cn1cc(F)c2ncc(-c3ccc(F)c(F)c3)cc21 ?
Found: Fulfilled

Lookup: Reported pIC50 reaches at least 7 for O=C(Cn1ccc2ncc(-c3ccc(F)c(F)c3)cc21)N1CCC1 ?
Found: Not fulfilled

Lookup: Reported pIC50 reaches at least 7 for O=C(Cn1ccc2ncc(-c3ccc(F)c(C(F)(F)F)c3)cc21)N1CCCC1 ?
Found: Fulfilled

Lookup: Reported pIC50 reaches at least 7 for Cc1cc(-c2cnc3ccn(CC(=O)N4CCCC(C(F)(F)F)C4)c3c2)ccc1F (racemic) [Example 195, trifluoroacetate salt] ?
Found: Not fulfilled

Lookup: Reported pIC50 reaches at least 7 for CC(C)C(=O)Cn1cc(F)c2ncc(-c3cc(F)c(F)c(F)c3)cc21 ?
Found: Fulfilled

====

target.or.test.system: cloned human NR1/NR2B ion channels (Homo sapiens (Human), UniProt Q05586+Q13224)
procedure.details: HNR2BC: effects of test articles on cloned human NR1/NR2B ion channels expressed in mammalian cells (FLIPR calcium flux)
Format: cell-based
experimental.parameters: cloned human NR1/NR2B ion channels, Table 5
Where a name gives a salt, the structure may show the parent alone.
Listing of entries alongside the reported IC50.
Could you give me the number in nM? Just the number is fine.

| compound | recorded.result |
| --- | --- |
| CCN(C)C(=O)Cn1cc(C)c2ncc(-c3ccc(F)c(F)c3F)cc21 [Example 584] | 398 |
| CCN(C)C(=O)Cn1ccc2ncc(-c3cc(F)c(F)c(F)c3)cc21 [Example 462] | 126 |
| O=C(Cn1cc(F)c2ncc(-c3ccc(F)c(Cl)c3)cc21)N1CC(F)C1 [Example 608] | 20 |
| Cc1cn(CC(=O)N2CC(F)C2)c2cc(-c3cc(F)cc(F)c3)cnc12 [Example 635] | 316 |
| CCc1ccc(-c2cnc3ccn(CC(=O)N4CCC4)c3c2)s1 [Example 392, trifluoroacetate salt] | 63.1 |
| CCN(C)C(=O)Cn1cc(C)c2ncc(-c3ccc(F)cc3)cc21 [Example 559] | 158 |
| Cc1cc(-c2cnc3c(C)cn(CC(=O)N4CCCC4)c3c2)ccc1F [Example 616] | 31.6 |
| Cc1cccc(-c2cnc3c(F)cn(CC(=O)N(C)C)c3c2)c1F [Example 494] | 316 |
| O=C(Cn1ccc2ncc(-c3cccc(Cl)c3)cc21)N1CC(F)C1 [Example 465] | 79.4 |
| O=C(Cn1cc(F)c2ncc(-c3cccc(C(F)(F)F)c3F)cc21)N1CC(F)C1 [Example 485] | 39.8 |

Lookup: What is its IC50 for cloned human NR1/NR2B ion channels (Homo sapiens (Human), UniProt Q05586+Q13224)? Entry: CN(C)C(=O)Cn1cc(Cl)c2ncc(-c3ccccc3)cc21 [Example 514]
Found: 126

====

target.or.test.system: cloned human NR1/NR2B ion channels (Homo sapiens (Human), UniProt Q05586+Q13224)
procedure.details: HNR2BC: effects of test articles on cloned human NR1/NR2B ion channels expressed in mammalian cells (FLIPR calcium flux)
Type: cell-based
experimental.parameters: cloned human NR1/NR2B, Table 5
Experimental: HNR2BC: Effects of Test Articles on Cloned Human NR1/NR2B Ion Channels Expressed in Mammalian Cells NMDA receptors are ion channels that are highly permeable to Ca^2+ ions, rendering it possible to monitor NMDA receptor function using cell-based calcium flux assay. […] The time course of the changes in intracellular calcium is measured using a fluorescent dye and a FLIPR (Fluorometric Imaging Plate Reader) device. […]
Where a name gives a salt, the structure may show the parent alone.
readout.kind: IC50 (nM)
Could you give me the number in nM? Just the number is fine.

Example entries and their recorded answers appear below.
| compound | IC50 (nM) |
| --- | --- |
| O=C(Cn1cc(Cl)c2ncc(-c3cc(F)c(F)c(F)c3)cc21)N1CCC1 | 20 |
| Cc1cn(CC(=O)NC2CC2)c2cc(-c3ccc(F)cc3)cnc12 | 398 |
| O=C(Cn1cc(F)c2ncc(-c3ccc(F)cc3)cc21)N1CCCC1 | 63.1 |
| CCC(=O)Cn1cc(F)c2ncc(-c3ccc(Cl)s3)cc21 | 15.8 |

Lookup: What is its IC50 for cloned human NR1/NR2B ion channels (Homo sapiens (Human), UniProt Q05586+Q13224)? Entry: O=C(Cn1cc(Cl)c2ncc(-c3ccccc3)cc21)N1CC(F)C1
Found: 50.1

Lookup: What is its IC50 for cloned human NR1/NR2B ion channels (Homo sapiens (Human), UniProt Q05586+Q13224)? Entry: O=C(Cn1ccc2ncc(-c3ccccc3)cc21)N1CC(F)C1
Found: 39.8

Lookup: What is its IC50 for cloned human NR1/NR2B ion channels (Homo sapiens (Human), UniProt Q05586+Q13224)? Entry: O=C(Cn1ccc2ncc(-c3cc(F)cc(F)c3)cc21)N1CC(F)(F)C1
Found: 63.1

Lookup: What is its IC50 for cloned human NR1/NR2B ion channels (Homo sapiens (Human), UniProt Q05586+Q13224)? Entry: O=C(Cn1ccc2ncc(-c3ccc(F)cc3)cc21)N1CC[C@H](F)C1 (single isomer, unassigned) [Example 293, trifluoroacetate salt]
Found: 31.6

Lookup: What is its IC50 for cloned human NR1/NR2B ion channels (Homo sapiens (Human), UniProt Q05586+Q13224)? Entry: O=C(Cn1cc(F)c2ncc(-c3ccc(F)cc3)cc21)N1CC(F)C1
Found: 63.1

====

target.or.test.system: cloned human NR1/NR2B ion channels (Homo sapiens (Human), UniProt Q05586+Q13224)
procedure.details: HNR2BC: effects of test articles on cloned human NR1/NR2B ion channels expressed in mammalian cells (FLIPR calcium flux)
Assay type: cell-based
experimental.parameters: cloned human NR1/NR2B ion channels, Table 5
Listing of entries alongside the reported log10(IC50).
Plainly stated, the numbers are log10 of IC50 given in nM.

| compound | target.or.test.system | recorded.result |
| --- | --- | --- |
| CCc1ccc(-c2cnc3c(Cl)cn(CC(=O)N4CC(F)C4)c3c2)s1 [Example 424] | cloned human NR1/NR2B ion channels (Homo sapiens (Human), UniProt Q05586+Q13224) | 1.50 |

Lookup: What is its log10(IC50) for cloned human NR1/NR2B ion channels (Homo sapiens (Human), UniProt Q05586+Q13224)? Entry: Cc1cccc(-c2cnc3c(C)cn(CC(=O)N4CC(F)(F)C4)c3c2)c1F [Example 564]
Found: 2.00

Lookup: What is its log10(IC50) for cloned human NR1/NR2B ion channels (Homo sapiens (Human), UniProt Q05586+Q13224)? Entry: Cc1cc(-c2cnc3ccn(CC(=O)N(C)CC(F)(F)F)c3c2)ccc1F [Example 415]
Found: 1.80

====

target.or.test.system: cloned human NR1/NR2B ion channels (Homo sapiens (Human), UniProt Q05586+Q13224)
procedure.details: HNR2BC: effects of test articles on cloned human NR1/NR2B ion channels expressed in mammalian cells (FLIPR calcium flux)
Type: cell-based
experimental.parameters: cloned human NR1/NR2B, Table 5
Structures can show the parent of a compound that is named as a salt.
readout.kind: IC50
Returns: string containing the number followed by the unit.

| compound | readout.kind | recorded.result |
| --- | --- | --- |
| O=C(Cn1ccc2ncc(-c3cc(F)cc(F)c3)cc21)NC1CC1 [Example 350, trifluoroacetate salt] | IC50 | 15.8 nM |
| Cc1csc(-c2cnc3ccn(CC(=O)C(C)(C)C)c3c2)c1 | IC50 | 794 nM |
| O=C(Cn1ccc2ncc(-c3ccc(F)c(C(F)(F)F)c3)cc21)NC1CC1 | IC50 | 200 nM |

Lookup: I would be grateful if you could share the reported IC50 for O=C(Cn1ccc2ncc(-c3ccc(F)cc3)cc21)NCCF .
Found: 15800 nM

Lookup: I would be grateful if you could share the reported IC50 for Cc1cc(-c2cnc3ccn(CC(=O)N4CCCC4(C)C)c3c2)ccc1F [Example 200, trifluoroacetate salt] .
Found: 251 nM

====

Listing of entries alongside the reported IC50.
target.or.test.system: cloned human NR1/NR2B ion channels (Homo sapiens (Human), UniProt Q05586+Q13224)
procedure.details: HNR2BC: effects of test articles on cloned human NR1/NR2B ion channels expressed in mammalian cells (FLIPR calcium flux)
Assay type: cell-based
experimental.parameters: cloned human NR1/NR2B, Table 5
Structures can show the parent of a compound that is named as a salt.
Could you give me the number in nM? Just the number is fine.

Lookup: I would be grateful if you could share the reported IC50 for O=C(Cn1cc(Cl)c2ncc(-c3cncc(C(F)(F)F)c3)cc21)NC1CC1 [Example 244, trifluoroacetate salt] .
Found: 631

Lookup: I would be grateful if you could share the reported IC50 for Cc1cc(-c2cnc3ccn(Cc4cccnc4)c3c2)ccc1F [Example 172, trifluoroacetate salt] .
Found: 794

Lookup: I would be grateful if you could share the reported IC50 for CN(C(=O)Cn1ccc2ncc(-c3ccc(F)cc3)cc21)C1CC1 [Example 205] .
Found: 50.1

Lookup: I would be grateful if you could share the reported IC50 for O=C(Cn1ccc2ncc(-c3ccc(F)cc3)cc21)N1CC(F)C1 [Example 204] .
Found: 1580

Lookup: I would be grateful if you could share the reported IC50 for O=C(Cn1ccc2ncc(-c3ccc(F)c(F)c3F)cc21)N1CCC1 [Example 118] .
Found: 100

Lookup: I would be grateful if you could share the reported IC50 for O=C(Cn1ccc2ncc(-c3cccc(F)c3)cc21)N1CC(F)C1 [Example 263, trifluoroacetate salt] .
Found: 158
